targetOfAssay: GlcNAc(b1-3)Gal(b1-4)GlcNAc
procedureSummary: glycan array binding signal (z-score within array); higher = stronger binding
experimentalParameters: glycan notation: IUPAC condensed, linker removed
About 410 targets per protein were measured; listed, in parts, are those with the strongest signals and a random draw of the rest.
Assignment: determine reported glycan array binding signal (z-score) for the given binders.
Give bare numbers.

# binder, measValue
records = [
    ("SGC, Q9M345 (protein) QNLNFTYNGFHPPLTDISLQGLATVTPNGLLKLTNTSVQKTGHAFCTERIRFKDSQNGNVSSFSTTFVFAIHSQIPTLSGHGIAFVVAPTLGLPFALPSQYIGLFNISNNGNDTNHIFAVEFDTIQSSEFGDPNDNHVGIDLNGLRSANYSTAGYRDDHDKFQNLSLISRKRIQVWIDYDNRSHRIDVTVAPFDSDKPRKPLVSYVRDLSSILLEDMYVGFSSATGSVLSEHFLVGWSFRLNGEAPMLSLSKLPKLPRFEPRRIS", -0.367),
    ("CTLY 1 (Homo sapiens), Q6ZS10 (protein) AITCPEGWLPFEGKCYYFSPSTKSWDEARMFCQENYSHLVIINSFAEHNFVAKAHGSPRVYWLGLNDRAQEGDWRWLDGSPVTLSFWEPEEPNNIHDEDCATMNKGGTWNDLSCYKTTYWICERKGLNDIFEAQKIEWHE", -0.237),
    ("Ficolin A (Rattus norvegicus), Q9WTS8 (protein) MWWPMLWAFPVLLCLCSSQALGQESGACPDVKIVGLGAQDKVAVIQSCPSFPGPPGPKGEPGSPAGRGERGLQGSPGKMGPPGSKGEPGTMGPPGVKGEKGERGTASPLGQKELGDALCRRGPRSCKDLLTRGIFLTGWYTIYLPDCRPLTVLCDMDVDGGGWTVFQRRVDGSINFYRDWDSYKRGFGNLGTEFWLGNDYLHLLTANGNQELRVDLREFQGQTSFAKYSSFQVSGEQEKYKLTLGQFLEGTAGDSLTKHNNMAFSTHDQDNDTNGGKNCAALFHGAWWYHDCHQSNLNGRYLPGSHESYADGINWLSGRGHRYSYKVAEMKIRAS", -0.094),
    ("ArathEULS3 TAP (Arabidopsis thaliana) (protein) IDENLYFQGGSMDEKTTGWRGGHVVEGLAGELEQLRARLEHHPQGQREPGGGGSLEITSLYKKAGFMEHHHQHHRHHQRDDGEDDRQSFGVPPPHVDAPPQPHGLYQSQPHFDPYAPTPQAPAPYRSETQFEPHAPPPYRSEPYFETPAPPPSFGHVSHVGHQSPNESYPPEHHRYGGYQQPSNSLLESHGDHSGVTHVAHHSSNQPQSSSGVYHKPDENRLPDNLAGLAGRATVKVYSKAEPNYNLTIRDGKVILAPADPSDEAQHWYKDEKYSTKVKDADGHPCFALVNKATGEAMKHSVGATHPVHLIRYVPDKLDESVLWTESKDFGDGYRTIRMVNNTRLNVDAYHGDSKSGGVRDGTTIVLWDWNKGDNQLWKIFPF", -0.59),
]

Please turn your attention to the following entry.
Entry under test: EULS2 M1 (Oryza sativa) (protein) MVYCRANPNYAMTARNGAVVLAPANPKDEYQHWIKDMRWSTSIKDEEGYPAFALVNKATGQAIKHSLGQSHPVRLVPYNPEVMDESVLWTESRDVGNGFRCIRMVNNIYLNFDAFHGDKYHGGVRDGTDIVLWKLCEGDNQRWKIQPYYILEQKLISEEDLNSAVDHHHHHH . Its glycan array binding signal (z-score) was 0.2
